- Tested on: S. purpuratus embryos
- measurement protocol: Inhibition of first cleavage (cell division) of sea urchin embryos
- Type: cell-based, Strongylocentrotus purpuratus
- measurement parameters: Strongylocentrotus purpuratus, read-out: concentration required for half maximal inhibition of first cleavage
assay endpoint: IC50

Query the reported IC50 for S. purpuratus embryos; item: O=c1oc2ccccc2c(O)c1Cc1c(O)c2ccccc2oc1=O [dicoumarol]
~4 µM

Origin of measurements: patent US6660767B2
